log10(EC30) values for the compounds below.
Tested on: mono-methyl arginine in RKO cells
Test protocol: RKO Methylation Assay, In Cell Western (ICW) for mono-methyl arginine and DNA content
Format: cell-based
Assay conditions: Homo sapiens, RKO, 72 h, RKO cells, 72 hours, mono-methyl arginine, percent activation; single experiment or average of multiple experiments; read-out: EC30 (In Cell Western data, Numerical)
The common logarithm of EC30 in µM is what is listed.

Consider the following illustrative entries.
CNCCN(C)Cc1n[nH]cc1-c1ccc(Oc2ccccc2F)cc1 [Compound 279]    -0.20
CNCCN(C)Cc1n[nH]cc1-c1ccc(Oc2ccccc2)c(C(=O)N(C)C)c1 [Compound 241]    1.02
CN(CCN)Cc1n[nH]cc1-c1ccc(OC(F)F)cc1 [Compound 138]    0.36
CNCCN(C)Cc1c[nH]nc1-c1ccc(OC2CC2)c(F)c1 [Compound 301]    -0.89
CNCCN(C)Cc1c[nH]nc1-c1ccc(OCCOC)cc1 [Compound 289]    -0.38

**Q:** Find the recorded log10(EC30) belonging to CNCCN(C)Cc1c[nH]nc1-c1ccc(OC2CCC2)c(F)c1 [Compound 305] and report it.
**A:** -0.71

**Q:** Dear colleague, I am looking for the recorded log10(EC30) of the following compound: CN(CCN)Cc1n[nH]cc1-c1ccc(F)cc1 [Compound 69]
**A:** 0.90

**Q:** What value of measured log10(EC30) is listed for CNCCN(C)Cc1c[nH]nc1-c1ccc(NC(C)C)cc1 [Compound 295] ?
**A:** -0.94

**Q:** Consider the compound CNCCN(C)Cc1c[nH]nc1-c1ccc(Oc2ccccc2)c(C(=O)N(C)C)c1 [Compound 233] and give its measured log10(EC30).
**A:** 1.24

**Q:** Report log10(EC30) for Cc1ccc(F)cc1-c1n[nH]cc1CN(C)CCN [Compound 159] please.
**A:** 0.93

**Q:** Using the record for CNCCN(C)Cc1c[nH]nc1-c1cc(OC(C)C)cc(C(C)C)c1 [Compound 260] , report its log10(EC30).
**A:** 0.78

---

Quick list: IC50 per entry.
Measured on: human PRMT6 (Homo sapiens, UniProt Q96LA8)
Construct: Flag-PRMT6-His; made in house; host or cells: HEK 293F cells (BacMam baculovirus)
Sequence (Q96LA8 with tags, fused parts or gaps): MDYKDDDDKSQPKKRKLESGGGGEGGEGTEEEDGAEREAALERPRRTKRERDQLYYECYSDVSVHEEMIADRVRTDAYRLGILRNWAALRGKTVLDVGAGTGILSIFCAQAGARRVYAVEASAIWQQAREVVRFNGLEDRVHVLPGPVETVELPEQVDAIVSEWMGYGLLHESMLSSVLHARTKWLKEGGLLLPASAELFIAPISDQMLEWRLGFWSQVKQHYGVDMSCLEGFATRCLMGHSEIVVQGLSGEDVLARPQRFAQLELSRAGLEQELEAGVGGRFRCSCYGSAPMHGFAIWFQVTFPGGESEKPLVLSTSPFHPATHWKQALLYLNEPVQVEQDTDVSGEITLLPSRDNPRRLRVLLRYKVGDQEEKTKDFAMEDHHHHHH
Test protocol: PRMT6 Biochemical Assay (3H-SAM Flashplate, peptide substrate)
Assay conditions: Biochemical IC50 PRMT6, single experiment or average of multiple experiments
Where a name gives a salt, the structure may show the parent alone.
Write the number in nM without appending the unit.

Reference set, count: 6
CNCCN(C)Cc1c[nH]nc1-c1ccc(OCCCOC)c(Cl)c1    8.22
CNCCN(C)Cc1cn(C2CC2)nc1-c1ccc(F)cc1    271
Cc1cccc(-c2n[nH]cc2CN(C)CCN)c1    12.1
CNCCN(C)Cc1c[nH]nc1-c1ccc(Oc2cccc(C(C)C)c2)cc1    1.46
Cc1cc(F)ccc1-c1n[nH]cc1CN(C)CCN    22.7
CNCCN(C)Cc1c[nH]nc1-c1ccc(NC(C)C)cc1    64.9

**Q:** Recorded IC50 for `CNCCN(C)Cc1cn(C)nc1-c1ccc(Oc2ccccc2)cc1` , please?
**A:** 3.3

**Q:** What measured IC50 goes with CNCCN(C)Cc1cnn(C)c1-c1ccc(OC(C)C)cc1 [Compound 244, hydrochloride] ?
**A:** 45.1

**Q:** May I ask what IC50 has been recorded for `CNCCN(C)Cc1c[nH]nc1-c1ccc(Oc2ccccc2)c(C(=O)N(C)C)c1` ?
**A:** 18.2
